molecular target: Phosphatidylcholine:ceramide cholinephosphotransferase 2 (Homo sapiens); assay: Inhibition of full length C-terminal FLAG tagged human SMS2 expressed in HEK293 cell membranes using DMPC-d72 and C17-ceramide as substrate preincubated for 60 mins followed by substrate addition measured after 30 mins by RapidFire/mass spectrometry assay
Sequence (Q8NHU3 whole entry): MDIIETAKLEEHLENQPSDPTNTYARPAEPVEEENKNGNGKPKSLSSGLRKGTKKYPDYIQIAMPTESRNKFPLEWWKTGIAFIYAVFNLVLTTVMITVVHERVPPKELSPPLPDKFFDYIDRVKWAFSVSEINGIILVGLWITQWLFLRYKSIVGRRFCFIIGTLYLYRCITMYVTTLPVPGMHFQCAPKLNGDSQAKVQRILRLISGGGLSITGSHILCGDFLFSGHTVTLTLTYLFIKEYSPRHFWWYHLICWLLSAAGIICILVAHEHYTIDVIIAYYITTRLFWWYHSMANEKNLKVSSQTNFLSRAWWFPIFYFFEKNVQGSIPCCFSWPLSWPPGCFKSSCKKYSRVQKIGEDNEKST
Attribute measured: IC50 (µM)
Express the result in µM but write the number alone.

Prompt: I would be grateful if you could share the reported IC50 for S=C(S)OC1CC2CC1C1CCCC21 (stereo unspecified) .
Completion: 56

###

Target: Phosphatidylcholine:ceramide cholinephosphotransferase 1 (Homo sapiens, UniProt Q86VZ5)
Sequence (Q86VZ5 whole entry): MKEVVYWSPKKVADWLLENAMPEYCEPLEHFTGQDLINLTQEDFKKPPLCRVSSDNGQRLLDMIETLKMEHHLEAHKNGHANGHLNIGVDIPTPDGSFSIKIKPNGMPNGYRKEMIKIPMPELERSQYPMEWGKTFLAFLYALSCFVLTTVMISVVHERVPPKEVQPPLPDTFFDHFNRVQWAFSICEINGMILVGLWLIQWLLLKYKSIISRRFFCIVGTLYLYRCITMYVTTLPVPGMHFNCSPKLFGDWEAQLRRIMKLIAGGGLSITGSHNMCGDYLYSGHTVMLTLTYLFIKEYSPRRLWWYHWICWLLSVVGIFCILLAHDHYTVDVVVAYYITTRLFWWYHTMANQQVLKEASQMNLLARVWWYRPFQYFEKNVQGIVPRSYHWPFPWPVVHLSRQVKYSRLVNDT
Experiment: Inhibition of full length C-terminal FLAG tagged human SMS1 expressed in HEK293 cell membranes using DMPC-d72 and C17-ceramide as substrate preincubated for 60 mins followed by substrate addition measured after 30 mins by RapidFire/mass spectrometry assay
Attribute measured: pIC50
Formally, pIC50 is defined as -log10 of the concentration c, with c in mol/L.

Prompt: I would be grateful if you could share the reported pIC50 for S=C(S)OC1CC2CC1C1CCCC21 (stereo unspecified) .
Completion: 4.07
